Origin of values: patent EP0084730A1

assay: Blood levels of the clavulanate after oral dosing in mice, determined by β-lactamase inhibition assay; assay type: in vivo; details: mouse, blood, mice, clavulanic acid alone at 20 mg/kg, 15' after administration, mean results from several experiments, read-out: Blood levels of clavulanic acid
quantity: concentration at 0.25 h (ng/mL)
The reply should contain only the number, in ng/mL.

Prompt line: # lookup: concentration at 0.25 h of `O=C(O)[C@H]1/C(=C/CO)O[C@@H]2CC(=O)N21`
Response line: 5900

====

assay: Blood levels of the clavulanate after oral dosing in mice, determined by β-lactamase inhibition assay; type: in vivo; conditions: mouse, blood, mice, clavulanic acid alone at 20 mg/kg, 60' after administration, mean results from several experiments, read-out: Blood levels of clavulanic acid
quantity: concentration at 1 h (ng/mL)
The reply should contain only the number, in ng/mL.

Prompt line: # lookup: concentration at 1 h of O=C(O)[C@H]1/C(=C/CO)O[C@@H]2CC(=O)N21 [clavulanic acid]
Response line: 530

====

test: Blood levels of the clavulanate after oral dosing in mice, determined by β-lactamase inhibition assay; type: in vivo; conditions: mouse, in vivo, 20 mg/kg
quantity: concentration at 0.5 h

Prompt line: # lookup: concentration at 0.5 h of COC/C=C1\O[C@@H]2CC(=O)N2[C@H]1C(=O)O [Clavulanic acid methyl ether]
Response line: 3.85 µg/mL

====

assay: Blood levels of the clavulanate after oral dosing in mice, determined by β-lactamase inhibition assay; format: in vivo; settings: mouse, in vivo, 20 mg/kg
quantity: concentration at 1 h (ng/mL)
The reply should contain only the number, in ng/mL.

Prompt line: # lookup: concentration at 1 h of `COC/C=C1\O[C@@H]2CC(=O)N2[C@H]1C(=O)O`
Response line: 1500

====

test: Blood levels of the clavulanate after oral dosing in mice, determined by β-lactamase inhibition assay; assay type: in vivo; conditions: mouse, in vivo, 20 mg/kg
quantity: concentration at 0.25 h (ng/mL)
The reply should contain only the number, in ng/mL.

Prompt line: # lookup: concentration at 0.25 h of `COC/C=C1\O[C@@H]2CC(=O)N2[C@H]1C(=O)O`
Response line: 7500

====

experiment: Blood levels of the clavulanate after oral dosing in mice, determined by β-lactamase inhibition assay; type: in vivo; details: mouse, in vivo, 20 mg/kg
quantity: concentration at 2 h (ng/mL)
The reply should contain only the number, in ng/mL.

Prompt line: # lookup: concentration at 2 h of `COC/C=C1\O[C@@H]2CC(=O)N2[C@H]1C(=O)O`
Response line: 200

====

test: Blood levels of the clavulanate after oral dosing in mice, determined by β-lactamase inhibition assay; format: in vivo; details: mouse, blood, mice, clavulanic acid alone at 20 mg/kg, 120' after administration, mean results from several experiments, read-out: Blood levels of clavulanic acid
quantity: concentration at 2 h

Prompt line: # lookup: concentration at 2 h of `O=C(O)[C@H]1/C(=C/CO)O[C@@H]2CC(=O)N21`
Response line: ≤ 300 ng/mL

====

test: Blood levels of the clavulanate after oral dosing in mice, determined by β-lactamase inhibition assay; format: in vivo; details: mouse, blood, mice, clavulanic acid alone at 20 mg/kg, 45' after administration, mean results from several experiments
quantity: concentration at 0.75 h
Reply with the number, then its unit.

Prompt line: # lookup: concentration at 0.75 h of `O=C(O)[C@H]1/C(=C/CO)O[C@@H]2CC(=O)N21`
Response line: 1040 ng/mL
